# measured-target: aromatase (CYP19A) (Homo sapiens, UniProt P11511)
# Construct: purchased Bio Vision
# Sequence (P11511 1-503): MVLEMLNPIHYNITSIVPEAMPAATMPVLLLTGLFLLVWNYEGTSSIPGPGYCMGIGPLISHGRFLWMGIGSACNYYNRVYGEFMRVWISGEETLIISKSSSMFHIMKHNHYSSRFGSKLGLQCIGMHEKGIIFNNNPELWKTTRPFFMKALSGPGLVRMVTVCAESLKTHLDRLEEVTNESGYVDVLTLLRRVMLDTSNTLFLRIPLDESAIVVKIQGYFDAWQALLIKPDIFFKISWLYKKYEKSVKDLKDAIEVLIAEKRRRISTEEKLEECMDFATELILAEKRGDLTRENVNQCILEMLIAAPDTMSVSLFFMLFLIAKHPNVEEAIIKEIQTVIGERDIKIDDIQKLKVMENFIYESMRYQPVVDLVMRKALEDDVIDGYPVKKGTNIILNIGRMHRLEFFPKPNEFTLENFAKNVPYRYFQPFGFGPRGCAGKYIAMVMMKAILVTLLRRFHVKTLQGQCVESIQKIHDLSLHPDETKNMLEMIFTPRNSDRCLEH
# assay-method-text: Aromatase (CYP19A) inhibitor screening kit (fluorometric)
# Format: biochemical
property-label: pIC50
Keep it numeric: pIC50 is minus log10 of the concentration in mol/L.

Qu. Consider the compound shown here: C[C@@H]1N[C@@H]2CCCCCCCC(=O)O[C@H]3CC[C@@H](CCCCCCCC(=O)O[C@H]1CC2)N[C@H]3C What is its recorded pIC50?
Ans. 6.97
